protocolText: Half-life in C57BL/6J mice upon intravenous administration of 3.33 mg/kg
Format: ADME, organism-based
Design: dose 3.33 mg/kg, route intravenous
conditionSummary: mouse, in vivo
reportedEndpoint: half-life

The compound listed as CCCCCCCC/C=C\CCCCCCCC(=O)N[C@H]1CC[C@@]2(C)C(CC[C@H]3[C@@H]4CC[C@H](C(C)CCC(=O)N[C@@H](Cc5ccc(O)cc5)C(=O)NCC(=O)NC(COCCC(=O)NCCOCCOCCOC5OC(CO)C(O)C(O)C5NC(C)=O)(COCCC(=O)NCCOCCOCCOC5OC(CO)C(O)C(O)C5NC(C)=O)COCCC(=O)NCCOCCOCCOC5OC(CO)C(O)C(O)C5NC(C)=O)[C@@]4(C)CC[C@@H]32)C1 (stereo partly specified) shows half-life equal to ~30 min
